Documented PBM binding z-score across a set of sequences
# System: LXRb:RXRa (NR concentration 270 nM, RXRa partner concentration 90 nM)
# test.protocol: PBM binding z-score (relative to random genomic background probes); higher = stronger binding; sequences stand for … in GC…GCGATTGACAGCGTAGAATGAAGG
metric: PBM binding z-score

primary.sequence: TCTTGTAGATCAACAGGAGGTTACGAAAGATCGA
metric: PBM binding z-score
measured.value: 0.991
--
primary.sequence: CAGCCTAGGTCAGGGCCAGGATAGGAGGAACGTT
metric: PBM binding z-score
measured.value: 0.522
--
primary.sequence: AGTCAAAGTTCAGGACAAGGTAACGTAAAGCACG
metric: PBM binding z-score
measured.value: 2.19
--
primary.sequence: TCTATTAGTTGAAGGGCAACCCACGAGTCCGTTT
metric: PBM binding z-score
measured.value: 1.18
--
primary.sequence: ATCTCTAGGTAAGACGCAGTTCAGTGAAGAACGC
metric: PBM binding z-score
measured.value: -0.176
--
primary.sequence: CCGACTGGGGCAAAGGTGACCATACTCAGTACGA
metric: PBM binding z-score
measured.value: 0.634
--
primary.sequence: AGTCAAAGTTCAGGATGAGGTAACGTAAAGCACG
metric: PBM binding z-score
measured.value: 2.02
--
primary.sequence: TCATATAGGTAAACACGTGAAAGTCCGTAAGTTA
metric: PBM binding z-score
measured.value: 0.56
--
primary.sequence: CGTCCAAAGTCAATGCTAGGTCAGTGAAAGCATT
metric: PBM binding z-score
measured.value: 0.482
--
primary.sequence: ATCGAAAGGTCGAGATGAGTATAGAGAAAGGGAA
metric: PBM binding z-score
measured.value: 2.54
--
primary.sequence: AGAATGAGGCTATACGTAGATCAGGGAAGAAAGT
metric: PBM binding z-score
measured.value: -0.708
--
primary.sequence: TCTTGTAGATCAAGCAGGTTAAGAATGCCTGAGT
metric: PBM binding z-score
measured.value: 0.114

----------
# Tested on: RXRa homodimer (NR concentration 180 nM)
# test.protocol: PBM binding z-score (relative to random genomic background probes); higher = stronger binding; sequences stand for … in GC…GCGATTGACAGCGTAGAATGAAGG

primary.sequence: TCAGACAGGTTAAGGTAACTCAGGTACGCAGTCG
PBM binding z-score: 1.57
//
primary.sequence: AATACAGGGTCACTAGGGCAGAGTAGGTACGAAT
PBM binding z-score: 5.8
//
primary.sequence: TCTTGTAGATCAACCAGGTTAAGAAAGCCTGAGT
PBM binding z-score: 0.38
//
primary.sequence: CAAACTAGGTCAAAGGTCAAATTCGAGCCAACCA
PBM binding z-score: 10.2
//
primary.sequence: ATATGTAGGTTAGCTGGGGTCATTTAGACTAGGC
PBM binding z-score: 5.02
//
primary.sequence: CGTCCTAGGTCAAGGTCAGTGAAAGAGACTCGAA
PBM binding z-score: 4.55
//
primary.sequence: CCTTACGGGTCACTCACAGGTTATAGCATTTGGA
PBM binding z-score: 4.75
//
primary.sequence: ATCTCTAGGTAAAAGATCAGTGAATCCCGAGGAT
PBM binding z-score: 0.281
//
primary.sequence: CATAGAGGGTCAGCTAGGCCAGAGTAGGGACGGC
PBM binding z-score: 3.3
//
primary.sequence: TCTCGGAGGACACGGAGGTCAGAGCTTTCCAGAG
PBM binding z-score: 2.47
//
primary.sequence: TATACAGGGTCAAAGCCCAGAGTACGAATGTCGA
PBM binding z-score: 5.9
//
primary.sequence: CCTTACGGGTCAAAGTTATAGCACGGGTGGTACG
PBM binding z-score: 5.29

----------
Documented PBM binding z-score across a set of sequences
# Test system: LXRb:RXRa (NR concentration 270 nM, RXRa partner concentration 90 nM)
# test.protocol: PBM binding z-score (relative to random genomic background probes); higher = stronger binding; sequences stand for … in GC…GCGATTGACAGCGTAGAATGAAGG
metric: PBM binding z-score

primary.sequence: TCATATAGGTAATACAGGTGAAAGTCGGCATCTA
measured.value: 1.2
--
primary.sequence: TAGCCTAGGTCACTCAGGGGCCAGTATAGAAAGC
measured.value: 2
--
primary.sequence: CATACAGGGTCAGCTAGGCCAGAGTGGGGACGGC
measured.value: 2.72
--
primary.sequence: TGTCAAAGTTCAAAGGTAACGTCAGTATCCACAC
measured.value: 4.84
--
primary.sequence: AGAATGAGGTTATGATCAGGGAAACAGAATACAT
measured.value: 1.41
--
primary.sequence: CGAACTAGGTCATTGACAGGAAAGTGAATAGTAA
measured.value: 2.01

----------
Documented PBM binding z-score across a set of sequences
# Test system: LXRb:RXRa (NR concentration 270 nM, RXRa partner concentration 90 nM)
# test.protocol: PBM binding z-score (relative to random genomic background probes); higher = stronger binding; sequences stand for … in GC…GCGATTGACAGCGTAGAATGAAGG
metric: PBM binding z-score

primary.sequence: ACTTACGGGTCAACGCGGTTATAGCACGCGTATA
target.or.system: LXRb:RXRa (NR concentration 270 nM, RXRa partner concentration 90 nM)
measured.value: 4.08

primary.sequence: CCTATTCGTTGACCATAAGGGCAACCGAAGCTCG
target.or.system: LXRb:RXRa (NR concentration 270 nM, RXRa partner concentration 90 nM)
measured.value: 0.578

primary.sequence: GATACAGGGTCAAGGCCAAAGTACGCGTATTGAT
target.or.system: LXRb:RXRa (NR concentration 270 nM, RXRa partner concentration 90 nM)
measured.value: 4.15

primary.sequence: GCTAGCAGGCCATTTGGATCACTCAATGACGGGC
target.or.system: LXRb:RXRa (NR concentration 270 nM, RXRa partner concentration 90 nM)
measured.value: -0.881

primary.sequence: TCATATAGGTAAAAGCTGAAAGTCGGTGTGGTAA
target.or.system: LXRb:RXRa (NR concentration 270 nM, RXRa partner concentration 90 nM)
measured.value: 0.664

primary.sequence: ACTAGCACGCCAAGGGTCACTCAAGATTAGTCCG
target.or.system: LXRb:RXRa (NR concentration 270 nM, RXRa partner concentration 90 nM)
measured.value: 3.1

primary.sequence: ATACCAAGGTGATCGTGAGGACGTTGATACTAAC
target.or.system: LXRb:RXRa (NR concentration 270 nM, RXRa partner concentration 90 nM)
measured.value: 0.0444

primary.sequence: CGGCCAAGGTCAGAGAGGTCAGTGAATGCCGAGT
target.or.system: LXRb:RXRa (NR concentration 270 nM, RXRa partner concentration 90 nM)
measured.value: 4.41

primary.sequence: CCTAGCAGGCCAATCTGGGTCACTCACGGCTTGA
target.or.system: LXRb:RXRa (NR concentration 270 nM, RXRa partner concentration 90 nM)
measured.value: 0.493

primary.sequence: ATATGTAGGTTAAGGGTCATACAGGTTGGTTCGC
target.or.system: LXRb:RXRa (NR concentration 270 nM, RXRa partner concentration 90 nM)
measured.value: 4.61

primary.sequence: ATATGTAGGTTAGATGGGGTCATTCAGACTAGGC
target.or.system: LXRb:RXRa (NR concentration 270 nM, RXRa partner concentration 90 nM)
measured.value: 4.97

primary.sequence: GCATATAGGTAATAAAAGGTGAAAGTCCGATTGT
target.or.system: LXRb:RXRa (NR concentration 270 nM, RXRa partner concentration 90 nM)
measured.value: 1.97

primary.sequence: GCGACTGGGGCATCACCAGGTTACCATAACTTAA
target.or.system: LXRb:RXRa (NR concentration 270 nM, RXRa partner concentration 90 nM)
measured.value: 0.637

primary.sequence: CGTCCAAGGTCAGTGCTAGGTCAGTGAAAGCATT
target.or.system: LXRb:RXRa (NR concentration 270 nM, RXRa partner concentration 90 nM)
measured.value: 2.75

primary.sequence: GGAACGAGGGCAAGTAGATAGCAGAGTTTGATGG
target.or.system: LXRb:RXRa (NR concentration 270 nM, RXRa partner concentration 90 nM)
measured.value: -0.016

primary.sequence: ATCCAAAGGTCGTGAGGTGAGTATACAGAAAGGC
target.or.system: LXRb:RXRa (NR concentration 270 nM, RXRa partner concentration 90 nM)
measured.value: 3.77

primary.sequence: CGCCCAAGGTCAGAGAGGTCAGTGAATGCCGAGT
target.or.system: LXRb:RXRa (NR concentration 270 nM, RXRa partner concentration 90 nM)
measured.value: 4.24

primary.sequence: CAAACTGGGTCACCGGAAGGTCAAAGTCCGCATG
target.or.system: LXRb:RXRa (NR concentration 270 nM, RXRa partner concentration 90 nM)
measured.value: 5

primary.sequence: ATCGAAAGCTCGACGAGGTGAGTATACACCGTTT
target.or.system: LXRb:RXRa (NR concentration 270 nM, RXRa partner concentration 90 nM)
measured.value: -0.456

primary.sequence: CTCGAAAGGTCGTGCTCAGGTGAGAATACCAAAC
target.or.system: LXRb:RXRa (NR concentration 270 nM, RXRa partner concentration 90 nM)
measured.value: 3.51

primary.sequence: CCGAGTAGGTTATGGGGCCTTCAGGCAACGGTGA
target.or.system: LXRb:RXRa (NR concentration 270 nM, RXRa partner concentration 90 nM)
measured.value: 0.353

primary.sequence: CGAACTAGGTCACGGACAGTGAATCTCCGCACGC
target.or.system: LXRb:RXRa (NR concentration 270 nM, RXRa partner concentration 90 nM)
measured.value: 2.64

primary.sequence: GCGACTGGGGCATCAGCAGGTTACCCTAACTTAA
target.or.system: LXRb:RXRa (NR concentration 270 nM, RXRa partner concentration 90 nM)
measured.value: 0.646

primary.sequence: ACAGACAGGTGATGAAGGTAAGTCAGGCTATCAT
target.or.system: LXRb:RXRa (NR concentration 270 nM, RXRa partner concentration 90 nM)
measured.value: -0.143

primary.sequence: TTCCCAAGGTGAGCTGAGGTCGTTGATCCAACTC
target.or.system: LXRb:RXRa (NR concentration 270 nM, RXRa partner concentration 90 nM)
measured.value: 0.959

primary.sequence: TCGAGTAGGTTAGGGCCATTCAGAATGGCGTCGA
target.or.system: LXRb:RXRa (NR concentration 270 nM, RXRa partner concentration 90 nM)
measured.value: -0.207
